Source: patent EP4781984A1

system: melanin; assay: Compound binding to melanin; type: in vitro ADME; details: cuttlefish (Sepia officinalis), melanin suspension (1 mg/mL), percentage of free drug (not bound to melanin), 2 µM compound, melanin 1 mg/mL in PBS pH 7.4, 37°C
measured-attribute: fraction unbound at 2 h, 2 µM

> print(dat)
                                    molecule             measured.attribute  recorded.result
 1  O=C(NC1CC1)c1ccccc1Sc1ccc2c(/C=C/c3ccc(OCCN4CCCCC4)cn3)n[nH]c2c1  fraction unbound at 2 h, 2 µM           > 0.05
 2  O=C(NC1CC1)c1ccccc1Sc1ccc2c(/C=C/c3cnn(CCCN4CCCC4)c3)n[nH]c2c1  fraction unbound at 2 h, 2 µM     0.01 to 0.05
 3  CNC(=O)c1ccccc1Sc1ccc2c(/C=C/c3ccc(OC[C@H]4CCN(C)C4)cn3)n[nH]c2c1  fraction unbound at 2 h, 2 µM     0.01 to 0.05
 4  CNC(=O)c1ccccc1Sc1ccc2c(/C=C/c3cccc(OCCN4CCCC4)n3)n[nH]c2c1  fraction unbound at 2 h, 2 µM     0.01 to 0.05
 5  CCN(CC)Cc1ccc(/C=C/c2n[nH]c3cc(Sc4c(F)cccc4C(=O)NC)ccc23)nc1  fraction unbound at 2 h, 2 µM     0.01 to 0.05
 6  CCNC(=O)c1cc(F)ccc1Sc1ccc2c(/C=C/c3ccc(CN4CCCC4)cn3)n[nH]c2c1  fraction unbound at 2 h, 2 µM     0.01 to 0.05
 7  CNC(=O)c1cccc(F)c1Sc1ccc2c(/C=C/c3ccc(OCCN4CCCC4)cn3)n[nH]c2c1  fraction unbound at 2 h, 2 µM           > 0.05
 8  CCNC(=O)c1cccc(F)c1Sc1ccc2c(/C=C/c3cc(CCCN4CCCC4)ccn3)n[nH]c2c1  fraction unbound at 2 h, 2 µM     0.01 to 0.05
 9  CCN(CC)Cc1ccc(/C=C/c2n[nH]c3cc(Sc4ccccc4C(=O)NCC(F)(F)F)ccc23)nc1  fraction unbound at 2 h, 2 µM           > 0.05
10  CNC(=O)c1ccccc1Sc1ccc2c(/C=C/c3cc(OCCN4CCCC4)ccn3)n[nH]c2c1  fraction unbound at 2 h, 2 µM     0.01 to 0.05
11  CCN(CC)Cc1ccc(/C=C/c2n[nH]c3cc(Sc4cc(F)ccc4C(=O)NC4CC4)ccc23)nc1  fraction unbound at 2 h, 2 µM           > 0.05
12  CCN(CC)Cc1ccc(/C=C/c2n[nH]c3cc(Sc4ccc(F)cc4C(=O)NC)ccc23)nc1  fraction unbound at 2 h, 2 µM     0.01 to 0.05
13  O=C(NC1CC1)c1ccccc1Sc1ccc2c(/C=C/c3cnn(CCN4CCCC4)c3)n[nH]c2c1  fraction unbound at 2 h, 2 µM     0.01 to 0.05
14  CNC(=O)c1ccccc1Sc1ccc2c(/C=C/c3ccc(OCC4CCN(C)C4)cn3)n[nH]c2c1 (stereo not drawn)  fraction unbound at 2 h, 2 µM           > 0.05
15  O=C(NC1CC1)c1cc(F)ccc1Sc1ccc2c(/C=C/c3cc(OCCN4CCCC4)ccn3)n[nH]c2c1  fraction unbound at 2 h, 2 µM           ≤ 0.01
